Biological target: E. coli CsgA (Escherichia coli, UniProt P28307)
Construct: made in house; host or cells: E. coli NEB 3016 slyD::kan, pET11d
Sequence (P28307 23-151): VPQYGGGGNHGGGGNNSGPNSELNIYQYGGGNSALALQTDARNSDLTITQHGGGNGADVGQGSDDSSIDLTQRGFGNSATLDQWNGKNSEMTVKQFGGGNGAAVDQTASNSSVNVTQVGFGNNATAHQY
Assay: In vitro ThioflavinT assay of CsgA aggregation (CsgA ThT Assay)
Type: biochemical
Details: read-out: CsgA ThT Assay (10 μM CsgA) % Control AUC at 1005 minutes, 100 μM, mean AUC as % of DMSO control; CsgA 10 μM, black plates; compound 100 μM; 1005 minutes
// remaining activity at 100 µM lookup, one value per entry
reportedProperty: remaining activity at 100 µM (%)

{"molecule": "O=C(O)C1CSc2c(-c3cccc(C(F)(F)F)c3)c(Cc3cccc4ccccc34)cc(=O)n21 (single isomer, unassigned) [Compound 011a]", "testedSystem": "E. coli CsgA (Escherichia coli, UniProt P28307)", "observed": 41}
{"molecule": "CCc1c(Cc2cccc3ccccc23)c(-c2cccc(C(F)(F)F)c2)c2n(c1=O)C(C(=O)O)CN(CCCCCO)S2(=O)=O (stereo not drawn)", "testedSystem": "E. coli CsgA (Escherichia coli, UniProt P28307)", "observed": 21}
{"molecule": "O=C(O)C1COc2c(-c3cccc(C(F)(F)F)c3)c(Cc3cccc4ccccc34)cc(=O)n21 (stereo not drawn)", "testedSystem": "E. coli CsgA (Escherichia coli, UniProt P28307)", "observed": 16}

###

Biological target: human α-synuclein (Homo sapiens, UniProt P37840)
Construct: the full-length gene for untagged human α-synuclein was inserted; made in house; host or cells: E. coli BL21(DE3), plasmid derived from pT7 or pET11a
Experiment: Cell-free Thioflavin T assay of α-synuclein aggregation (αSyn ThT Assay)
Type: biochemical
Conditions: αSyn 50 μM; compounds at 100 μM; class symbol; read-out: αSyn ThT Assay % Inhibition (activity range)
reportedProperty: inhibition at 100 µM

{"molecule": "O=C(O)C1CS(=O)(=O)c2c(-c3cccc(C(F)(F)F)c3)c(Cc3cccc4ccccc34)cc(=S)n21 (single isomer, unassigned) [Compound 014a]", "reportedProperty": "inhibition at 100 µM", "observed": "> 60%"}
{"molecule": "O=C(O)C1CS(=O)(=O)c2c(-c3cccc(C(F)(F)F)c3)c(Cc3cccc4ccccc34)cc(=S)n21 (racemic) [Compound 014]", "reportedProperty": "inhibition at 100 µM", "observed": "31 to 60%"}
{"molecule": "CCCN1CC(C(=O)O)n2c(c(-c3cccc(C(F)(F)F)c3)c(Cc3cccc4ccccc34)c(NC3CCCC3)c2=O)S1(=O)=O (centres unmarked) [Compound 126]", "reportedProperty": "inhibition at 100 µM", "observed": "31 to 60%"}
{"molecule": "CN(C)C(=O)C1CN(C)S(=O)(=O)c2c(-c3cccc(C(F)(F)F)c3)c(Cc3cccc4ccccc34)cc(=O)n21 (centres unmarked) [Compound 032]", "reportedProperty": "inhibition at 100 µM", "observed": "-10 to 10%"}
{"molecule": "O=C(O)C1CN(CCCCCCN2CC(C(=O)O)n3c(c(-c4cccc(C(F)(F)F)c4)c(Cc4cccc5ccccc45)cc3=O)S2(=O)=O)S(=O)(=O)c2c(-c3cccc(C(F)(F)F)c3)c(Cc3cccc4ccccc34)cc(=O)n21 (racemic) [Compound 043]", "reportedProperty": "inhibition at 100 µM", "observed": "> 60%"}
{"molecule": "O=C(O)C1CN(C[C@H](O)[C@@H](O)[C@H](O)[C@H](O)CO)S(=O)(=O)c2c(-c3cccc(C(F)(F)F)c3)c(Cc3cccc4ccccc34)cc(=O)n21 (mixture of isomers) [Compound 066]", "reportedProperty": "inhibition at 100 µM", "observed": "11 to 30%"}
{"molecule": "Cn1c(=O)c2c(ncn2CCCCCCCN2CC(C(=O)O)n3c(c(-c4cccc(C(F)(F)F)c4)c(Cc4cccc5ccccc45)cc3=O)S2(=O)=O)n(C)c1=O (centres unmarked) [Compound 036]", "reportedProperty": "inhibition at 100 µM", "observed": "11 to 30%"}
{"molecule": "O=C(O)C1CS(=O)(=O)c2c(-c3cccc(C(F)(F)F)c3)c(Cc3cccc4ccccc34)cc(=O)n21 (racemic) [Compound 010]", "reportedProperty": "inhibition at 100 µM", "observed": "11 to 30%"}

###

Target: E. coli CsgA (Escherichia coli, UniProt P28307)
Construct: made in house; host or cells: E. coli NEB 3016 slyD::kan, pET11d
Test: In vitro ThioflavinT assay of CsgA aggregation (CsgA ThT Assay)
Assay type: biochemical
Settings: read-out: CsgA ThT Assay (10 μM CsgA) % Control AUC at 1005 minutes, 100 μM (activity range), CsgA 10 μM, black plates; compound 100 μM; 1005 minutes; class symbol
Entries annotated with measured remaining activity at 100 µM

{"compound": "O=C(O)CCCCN1CC(C(=O)O)n2c(c(-c3cccc(C(F)(F)F)c3)c(Cc3cccc4ccccc34)cc2=O)S1(=O)=O (stereo not shown)", "remaining activity at 100 µM": "11 to 31%"}
{"compound": "O=C(O)C1CN(C[C@H](O)CO)S(=O)(=O)c2c(-c3cccc(C(F)(F)F)c3)c(Cc3cccc4ccccc34)cc(=O)n21 (stereo partly shown) [Compound 065a]", "remaining activity at 100 µM": "11 to 31%"}
{"compound": "CCCCCN1CC(C(=O)O)n2c(c(-c3cccc(C(F)(F)F)c3)c(Cc3ccc(N)c4ccccc34)cc2=O)S1(=O)=O (stereo not shown)", "remaining activity at 100 µM": "11 to 31%"}
{"compound": "CC(C)N1CC(C(=O)O)n2c(c(-c3cccc(C(F)(F)F)c3)c(Cc3cccc4ccccc34)c(NC3CCCC3)c2=O)S1(=O)=O (stereo not shown)", "remaining activity at 100 µM": "11 to 31%"}
{"compound": "O=C(O)C1CSc2c(-c3cccc(C(F)(F)F)c3)c(Cc3cccc4ccccc34)cc(=O)n21 (racemic) [Compound 011]", "remaining activity at 100 µM": "> 60%"}
{"compound": "O=C(O)CCCN1CC(C(=O)O)n2c(c(-c3cccc(C(F)(F)F)c3)c(Cc3cccc4ccccc34)cc2=O)S1(=O)=O (stereo not shown)", "remaining activity at 100 µM": "31 to 60%"}
{"compound": "CCc1c(Cc2cccc3ccccc23)c(-c2cccc(C(F)(F)F)c2)c2n(c1=O)C(C(=O)O)CN([C@H]1CC[C@@H](O)CC1)S2(=O)=O (stereo partly shown)", "remaining activity at 100 µM": "11 to 31%"}
